Recorded values, source patent US11548883B2.

Biological target: human ENPP2 (Homo sapiens (Human))
Counter-ions that a name gives are not always drawn.
Labelling field: enter fulfilled if recorded IC50 is less than 3 nM. Enter not fulfilled if it equals or exceeds that cut-off.

Determine whether this compound shows IC50 lower than 3 nM (ties excluded): CN(C)c1nn(CC(=O)N2CCc3[nH]nnc3C2)cc1-c1cnc(NC2Cc3ccccc3C2)nc1 [Compound 74]
fulfilled

For O=C(Cn1cc(-c2cnc(NC3Cc4ccccc4C3)nc2)c(OC2CCN(CC(F)F)CC2)n1)N1CCc2[nH]nnc2C1 [Compound 71] , is the recorded IC50 below the cut-off of 3 nM?
not fulfilled

Lab log: compare recorded IC50 with 3 nM; is it strictly lower for CCc1nn(CC(=O)N2CCc3[nH]nnc3C2)cc1-c1cnc(NC2Cc3ccccc3C2)nc1 [Compound 79] ?
fulfilled

Does O=C(Cn1cc(-c2cnc(NC3Cc4ccccc4C3)nc2)c(OC2CNC2)n1)N1CCc2[nH]nnc2C1 [Compound 62, hydrochloride] have IC50 strictly under 3 nM?
fulfilled

Problem: For the compound CCN1CCC(Oc2nn(CC(=O)N3CCc4[nH]nnc4C3)cc2-c2cnc(NC3Cc4ccccc4C3)nc2)CC1 [Compound 70] , is IC50 under 3 nM?
fulfilled

Consider O=C(Cn1cc(-c2cnc(NC3Cc4ccccc4C3)nc2)c(C(=O)N2CCNCC2)n1)N1CCc2[nH]nnc2C1 [Compound 77, hydrochloride] . Does its IC50 lie strictly below 3 nM?
not fulfilled

A record lists O=C(Cn1cc(-c2cnc(NC3Cc4ccccc4C3)nc2)cn1)N1CCc2[nH]nnc2C1 [Compound 56] . Is its IC50 below 3 nM?
fulfilled

Report whether reported IC50 is lower than 3 nM (strictly) for O=C(O)COc1nn(CC(=O)N2CCc3[nH]nnc3C2)cc1-c1cnc(NC2Cc3ccccc3C2)nc1 [Compound 73]
not fulfilled

Field: below-cutoff. Rule: recorded IC50 strictly less than 3 nM. Subject: O=C(Cn1cc(-c2cnc(NC3Cc4ccccc4C3)nc2)c(O)n1)N1CCc2[nH]nnc2C1 [Compound 65]
fulfilled

Please determine if O=C(O)C1=CCN(C(=O)Cc2nnc(-c3cnc(NC4Cc5ccccc5C4)nc3)o2)CC1 [Compound 48] is below 3 nM in terms of IC50.
not fulfilled

For O=C(Cn1cnc(-c2cnc(NC3Cc4ccccc4C3)nc2)c1)N1CCc2[nH]nnc2C1 [Compound 60] , is the recorded IC50 below the cut-off of 3 nM?
fulfilled

API: query returns whether the compound falls strictly under 3 nM in IC50. Query: O=C(Cn1cc(-c2ccc(NC3Cc4ccccc4C3)nc2)cn1)N1CCc2[nH]nnc2C1 [Compound 58]
not fulfilled

Is 3 nM strictly greater than the compound's reported IC50? compound: CN1CCN(Cc2nn(CC(=O)N3CCc4[nH]nnc4C3)cc2-c2cnc(NC3Cc4ccccc4C3)nc2)CC1=O [Compound 87]
not fulfilled

# strict comparison: is reported IC50 < 3 nM? input = CCc1c(-c2cnc(NC3Cc4ccccc4C3)nc2)cnn1CC(=O)N1CCc2[nH]nnc2C1 [Compound 78]
fulfilled

Field: below-cutoff. Rule: recorded IC50 strictly less than 3 nM. Subject: O=C(Cn1cc(-c2cnc(NC3Cc4ccccc4C3)cn2)cn1)N1CCc2[nH]nnc2C1 [Compound 59]
not fulfilled

Is IC50 of CN1C(=O)N(c2ccc3[nH]nnc3c2)C2(CCN(C(=O)c3cnc(NCc4cccc(OC(F)(F)F)c4)nc3)CC2)C1=O [Compound 9] strictly below 3 nM?
not fulfilled

Hello, I'm reviewing records and need to know if IC50 of O=C(Cn1cc(-c2cnc(NC3Cc4ccccc4C3)nc2)c(OCCN2CCOCC2)n1)N1CCc2[nH]nnc2C1 [Compound 66] is below 3 nM. Could you check?
fulfilled

hey, is IC50 for O=C(Cn1cc(-c2cnc(NC3Cc4ccccc4C3)nc2)c(CN2CCOCC2)n1)N1CCc2[nH]nnc2C1 [Compound 80] lower than 3 nM or not?
fulfilled

Lab note: confirm whether the reported IC50 for this compound is below 3 nM, equality not counting. compound: CCN1CC(Oc2nn(CC(=O)N3CCc4[nH]nnc4C3)cc2-c2cnc(NC3Cc4ccccc4C3)nc2)C1 [Compound 68]
fulfilled

Could you please tell me whether IC50 recorded for O=C(Cn1cc(-c2cnc(NC3Cc4ccccc4C3)nc2)c(CN2CCc3ccccc3C2)n1)N1CCc2[nH]nnc2C1 [Compound 84] is less than 3 nM?
fulfilled

Bench note: check whether O=C(O)c1ccc(COc2nn(CC(=O)N3CCc4[nH]nnc4C3)cc2-c2cnc(NC3Cc4ccccc4C3)nc2)cc1 [Compound 72] shows IC50 below 3 nM
not fulfilled

Check if IC50 falls below 3 nM for O=C1CN(Cc2nn(CC(=O)N3CCc4[nH]nnc4C3)cc2-c2cnc(NC3Cc4ccccc4C3)nc2)CCN1 [Compound 82] .
fulfilled

Consider O=C(Cn1cc(-c2cnc(NC3Cc4ccccc4C3)nc2)c(CN2CCCCC2)n1)N1CCc2[nH]nnc2C1 [Compound 81] . Does its IC50 lie strictly below 3 nM?
fulfilled
